Molecular target: T1, recombinant human VEGF165 (human, UniProt P15692-4 27-191, biotinylated in the competition assays)
T1 construct: Bought protein; also called hVEGF165; rhVEGF165
T1 sequence (P15692 other isoform, or with tags, fused parts or gaps): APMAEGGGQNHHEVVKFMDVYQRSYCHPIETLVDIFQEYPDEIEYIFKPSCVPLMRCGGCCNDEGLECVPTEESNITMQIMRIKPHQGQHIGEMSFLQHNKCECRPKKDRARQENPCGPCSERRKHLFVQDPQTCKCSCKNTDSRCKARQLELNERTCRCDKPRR
Assay: AlphaScreen, hVEGF165/hVEGFR1-Fc competition
measured endpoint: % inhibition (%)
The reply should be a number in %, with the unit left off.

Incoming: Consider the binder shown here: VEGFBII024 (VHH, not shown: small tags and cut ends, Bivalent anti-VEGF VHH; also called VEGFBII23B04-40GS-86H09) EVQLVESGGGLVQTGDSLRLSCEVSGRTFSSYSMGWFRQAQGKEREFVVAISKGGYKYDSVSLEGRFTISKDNAKNTVYLQINSLKPEDTAVYYCASSRAYGSSRLRLADTYEYWGQGTQVTVSSGGGGSGGGGSGGGGSGGGGSGGGGSGGGGSGGGGSGGGGSEVQLVESGGGLVQAGGSLRLSCTASGSAFKSYRMGWFRRTPGKEDEFVASISWTYGSTFYADSVKGRFTMSRDKAKNAGYLQMNSLKPEDTALYYCAAGAQSDRYNIRSYDYWGQGTQVTVSS What is its recorded % inhibition?
Outgoing: 100

Incoming: Consider the binder shown here: VEGFBII022 (VHH, not shown: small tags and cut ends, Bivalent (heterodimeric) anti-VEGF VHH; also called VEGFBII23B04-9GS-5B05) EVQLVESGGGLVQTGDSLRLSCEVSGRTFSSYSMGWFRQAQGKEREFVVAISKGGYKYDSVSLEGRFTISKDNAKNTVYLQINSLKPEDTAVYYCASSRAYGSSRLRLADTYEYWGQGTQVTVSSGGGGSGGGSEVQLVESGGGLVQPGGSLRLSCVASGIRFMSMAWYRQAPGKHRELVARISSGGTTAYVDSVKGRFTISRDNSKNTVYLQMNSLKAEDTAVYYCNTFSSRPNPWGAGTQVTVSS What is its recorded % inhibition?
Outgoing: 100

Incoming: Consider the binder shown here: VEGFBII025 (VHH, not shown: small tags and cut ends, Bivalent anti-VEGF VHH; also called VEGFBII10E07-40GS-23B04) EVQLVESGGGLVQAGGSLRLSCAASGRTFSNYAMGWFRQAPGKERVLVADISSSGINTYVADAVKGRFTISRDNAKNTVYLQMNSLKPEDTAVYYCAASAWWYSQMARDNYRYWGQGTQVTVSSGGGGSGGGGSGGGGSGGGGSGGGGSGGGGSGGGGSGGGGSEVQLVESGGGLVQTGDSLRLSCEVSGRTFSSYSMGWFRQAQGKEREFVVAISKGGYKYDSVSLEGRFTISKDNAKNTVYLQINSLKPEDTAVYYCASSRAYGSSRLRLADTYEYWGQGTQVTVSS What is its recorded % inhibition?
Outgoing: 82

Incoming: Consider the binder shown here: VEGFBII021 (VHH, not shown: small tags and cut ends, Bivalent (heterodimeric) anti-VEGF VHH; also called VEGFBII23B04-40GS-5B05) EVQLVESGGGLVQTGDSLRLSCEVSGRTFSSYSMGWFRQAQGKEREFVVAISKGGYKYDSVSLEGRFTISKDNAKNTVYLQINSLKPEDTAVYYCASSRAYGSSRLRLADTYEYWGQGTQVTVSSGGGGSGGGGSGGGGSGGGGSGGGGSGGGGSGGGGSGGGGSEVQLVESGGGLVQPGGSLRLSCVASGIRFMSMAWYRQAPGKHRELVARISSGGTTAYVDSVKGRFTISRDNSKNTVYLQMNSLKAEDTAVYYCNTFSSRPNPWGAGTQVTVSS What is its recorded % inhibition?
Outgoing: 100
